TEST SYSTEM: Recombinant human somatic ACE (sACE-1) (Homo sapiens, UniProt P12821)
Sequence (P12821 30-1261): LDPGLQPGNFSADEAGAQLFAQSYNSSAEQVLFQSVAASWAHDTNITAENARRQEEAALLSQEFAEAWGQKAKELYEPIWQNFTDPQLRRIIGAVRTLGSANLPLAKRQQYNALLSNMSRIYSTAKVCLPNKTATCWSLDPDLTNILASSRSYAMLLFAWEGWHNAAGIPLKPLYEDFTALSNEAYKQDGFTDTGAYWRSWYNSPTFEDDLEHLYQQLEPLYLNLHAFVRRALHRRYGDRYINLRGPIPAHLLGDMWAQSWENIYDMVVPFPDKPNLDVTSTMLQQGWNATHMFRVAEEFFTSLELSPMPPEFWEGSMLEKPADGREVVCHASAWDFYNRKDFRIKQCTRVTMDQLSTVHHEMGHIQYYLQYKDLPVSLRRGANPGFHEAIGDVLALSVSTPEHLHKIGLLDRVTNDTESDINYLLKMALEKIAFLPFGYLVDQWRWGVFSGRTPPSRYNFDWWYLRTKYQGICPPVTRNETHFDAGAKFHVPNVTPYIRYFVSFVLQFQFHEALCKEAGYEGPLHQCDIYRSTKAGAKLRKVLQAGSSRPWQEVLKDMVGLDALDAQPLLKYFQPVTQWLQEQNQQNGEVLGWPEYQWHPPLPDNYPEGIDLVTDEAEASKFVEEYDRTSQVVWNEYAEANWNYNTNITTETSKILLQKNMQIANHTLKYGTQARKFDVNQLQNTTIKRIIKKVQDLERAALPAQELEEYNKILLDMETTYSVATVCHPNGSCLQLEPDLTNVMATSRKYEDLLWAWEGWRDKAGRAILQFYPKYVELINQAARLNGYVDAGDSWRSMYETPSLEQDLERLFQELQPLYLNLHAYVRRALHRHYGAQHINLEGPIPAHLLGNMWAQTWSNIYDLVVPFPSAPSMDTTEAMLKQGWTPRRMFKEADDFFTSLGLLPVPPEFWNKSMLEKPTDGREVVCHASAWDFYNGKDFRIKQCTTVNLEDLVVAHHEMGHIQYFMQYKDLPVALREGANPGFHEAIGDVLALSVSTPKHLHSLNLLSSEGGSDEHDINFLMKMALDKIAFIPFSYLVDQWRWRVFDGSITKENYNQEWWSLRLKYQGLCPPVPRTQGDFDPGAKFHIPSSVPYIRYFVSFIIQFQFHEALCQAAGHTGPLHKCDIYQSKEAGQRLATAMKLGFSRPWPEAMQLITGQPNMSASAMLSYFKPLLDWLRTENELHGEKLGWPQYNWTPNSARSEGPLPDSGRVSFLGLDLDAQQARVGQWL
CONDITION NOTES: pH 7.4
pIC50: −log10 of the molar value.
ENDPOINT NAME: pIC50

O=C([O-])CN(CCN(CC(=O)[O-])CC(=O)[O-])CC(=O)[O-].[Cu+2] [Cu-EDTA] ... 4.59
O=C([O-])CN(CC(=O)[O-])CC(=O)O.[Cu+2] [Cu-NTA] ... 4.44

Every entry's value here was drawn from paper PMC3401419.
